# key: entry, value: pIC50
system: A2780; test: Cytotoxicity against human A2780 cells assessed as reduction in cell viability incubated for 72 hrs by MTT assay; assay type: functional, cell-based; conditions: A2780, 72 h
In simple prose, pIC50 is minus the logarithm base ten of a concentration in moles per litre.

C[C@@]12CC[C@@H]3C(=C[C@H]4OC(=O)[C@]5(C)[C@H]4[C@]34CC[C@@]5(O)OC4)[C@]1(O)OC[C@H]2O 5.77

[ask] Respond only with pIC50 recorded for C[C@@]1(C(=O)CO)CC[C@@H]2C(=C[C@H]3OC(=O)[C@]4(C)[C@H]3[C@]23CC[C@@]4(O)OC3)C1
[reply] 5.41
